Hi there, I'd appreciate the recorded concentration at 2 h for every entry that follows.
Experiment: LC-MS/MS bioanalysis of plasma and brain homogenate, mouse model of brain metastasis (MDA231-BrM2-831)
Format: in vivo, NCr nude mice
Condition label: female, NCr nude (CrTac:NCr-Foxn1nu), mouse, brain, oral, No BM mice (n = 3); oral once daily 5 days, niraparib 35 mg/kg or olaparib 50 mg/kg, 2 h after final dose; read-out: LC-MS/MS Bulk brain tissue, mean (SD)
One number for each entry, in ng/g.

O=C(c1cc(Cc2n[nH]c(=O)c3ccccc23)ccc1F)N1CCN(C(=O)C2CC2)CC1 5

// lookup concentration at 2 h for `NC(=O)c1cccc2cn(-c3ccc([C@@H]4CCCNC4)cc3)nc12`
658
